Target: AGE-BSA (Bos taurus, UniProt P02769)
Construct: Bovine serum albumin (fraction V) (BSA); from tissue
Sequence (P02769 25-607): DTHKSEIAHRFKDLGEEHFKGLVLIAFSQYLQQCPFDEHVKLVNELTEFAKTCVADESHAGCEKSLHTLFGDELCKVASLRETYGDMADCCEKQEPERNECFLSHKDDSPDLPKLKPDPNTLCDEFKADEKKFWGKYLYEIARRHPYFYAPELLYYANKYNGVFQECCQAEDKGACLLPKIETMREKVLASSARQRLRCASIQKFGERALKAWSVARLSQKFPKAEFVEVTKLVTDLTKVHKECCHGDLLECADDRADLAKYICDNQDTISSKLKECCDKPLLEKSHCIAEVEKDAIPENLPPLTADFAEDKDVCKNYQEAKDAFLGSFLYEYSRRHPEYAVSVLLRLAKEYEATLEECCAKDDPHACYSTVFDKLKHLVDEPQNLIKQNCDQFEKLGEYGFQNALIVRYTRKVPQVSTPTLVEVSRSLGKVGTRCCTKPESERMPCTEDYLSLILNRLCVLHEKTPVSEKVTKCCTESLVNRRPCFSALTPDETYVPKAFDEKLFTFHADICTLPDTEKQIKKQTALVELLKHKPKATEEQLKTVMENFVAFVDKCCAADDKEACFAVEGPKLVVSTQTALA
Assay: In-vitro AGE breaking activity by ELISA (16 weeks AGE-BSA incubated with test compound)
Assay type: biochemical, bovine
Conditions: 10 mM test compound; 37°C, 24 hours
Measured % Breakage of individual entries
Write the number in % without appending the unit.

// solved cases for % Breakage follow
CCOC(=O)C[n+]1cccc(C(=O)NCCO)c1.[Br-]: 43
CCOC(=O)C[n+]1cccc(C(=O)NNc2ccccn2)c1.[Br-]: 30
COCCOC(=O)c1ccc[n+](CC(=O)c2ccc(Cl)cc2Cl)c1: 13
Cc1ccc(C(=O)C[n+]2cccc(C(=O)NNC(=O)c3ccc[n+](CC(=O)c4ccc(C)s4)c3)c2)s1: 81.95
Cc1ccc(C(=O)C[n+]2cccc(C(=O)NNS(C)(=O)=O)c2)s1.[Cl-]: 25.17
O=C(C[n+]1cccc(C(=O)NCCOC(=O)c2ccccc2)c1)Nc1ccccc1.[Cl-]: 37

I would be grateful if you could share the reported % Breakage for CS(=O)(=O)NNC(=O)c1ccc[n+](CC(=O)c2cccs2)c1.[Cl-] .
17.53

###

Assay: Free radical scavenging activity on ABTS radical cation (absorbance at 730nm)
Type: biochemical
Details: 46.0µM
Measured Relative Free Radical Scavenging Activity(%) on ABTS of individual entries
Put down the number, then write its unit next to it.

O=C(CCC1CCCCC1)NNC(=O)c1ccc[n+](CC(=O)c2cccs2)c1.[Br-]: 65.4%

I would be grateful if you could share the reported Relative Free Radical Scavenging Activity(%) on ABTS for CS(=O)(=O)NNC(=O)c1ccc[n+](CC(=O)N2CCC(Cc3ccccc3)CC2)c1.[Cl-] .
52.82%

Query O=C(C[n+]1cccc(C(=O)NNC(=O)c2ccc[n+](CC(=O)NC3CC3)c2)c1)NC1CC1 next
95.6%

Query CCOC(=O)NNC(=O)c1ccc[n+](CC(=O)c2cccs2)c1 next
46.82%
